# Measured Target: T1, Histidine-tagged human CD3e protein (human, UniProt P07766 23-126)
# T1 construct: also called hCD3e-His; not shown: His tag
# T1 sequence (P07766 23-126 limits assumed): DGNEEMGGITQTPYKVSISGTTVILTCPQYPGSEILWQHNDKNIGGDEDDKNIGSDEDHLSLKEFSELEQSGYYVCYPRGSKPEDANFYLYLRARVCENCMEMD
# Assay: SPR (Biacore), human CD3e
Experimental Readout: Kd (nM)
Record the value in nM, omitting the unit from your answer.

See these solved cases before continuing.
binder="1B1-H2K1-IgG1-LALA (antibody, V domains shown, Humanized; human IgG1 with LALA mutations; also called H2K1 (humanized 1B1)) VH: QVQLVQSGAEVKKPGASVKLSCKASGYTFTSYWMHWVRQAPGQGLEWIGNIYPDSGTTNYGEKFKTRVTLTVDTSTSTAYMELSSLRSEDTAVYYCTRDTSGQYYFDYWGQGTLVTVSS VL: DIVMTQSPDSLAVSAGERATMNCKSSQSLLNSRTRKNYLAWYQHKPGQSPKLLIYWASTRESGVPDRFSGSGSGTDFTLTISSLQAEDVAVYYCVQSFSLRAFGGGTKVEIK" experimental_readout=Kd reported_result=1.49
binder="1B1-H4K3-IgG1-LALA (antibody, V domains shown, Humanized; human IgG1 with LALA mutations; also called H4K3 (humanized 1B1)) VH: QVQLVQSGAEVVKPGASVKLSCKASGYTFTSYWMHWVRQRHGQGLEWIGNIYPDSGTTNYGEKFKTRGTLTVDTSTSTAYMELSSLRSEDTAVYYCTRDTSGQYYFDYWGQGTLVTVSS VL: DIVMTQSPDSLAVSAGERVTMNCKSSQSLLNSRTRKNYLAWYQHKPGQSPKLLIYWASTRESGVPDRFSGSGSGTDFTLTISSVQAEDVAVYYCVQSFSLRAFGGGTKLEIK" experimental_readout=Kd reported_result=1.16
binder="1B1-H1K1-IgG1-LALA (antibody, V domains shown, Humanized; human IgG1 with LALA mutations; also called H1K1 (humanized 1B1)) VH: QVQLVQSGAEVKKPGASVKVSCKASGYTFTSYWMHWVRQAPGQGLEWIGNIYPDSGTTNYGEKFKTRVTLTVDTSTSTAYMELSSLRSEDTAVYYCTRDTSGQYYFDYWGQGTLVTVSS VL: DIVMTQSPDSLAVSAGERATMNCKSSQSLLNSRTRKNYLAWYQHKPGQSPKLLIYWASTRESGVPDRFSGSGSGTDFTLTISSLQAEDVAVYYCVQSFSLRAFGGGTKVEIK" experimental_readout=Kd reported_result=1.42
binder="1B1-H3K2-IgG1-LALA (antibody, V domains shown, Humanized; human IgG1 with LALA mutations; also called H3K2 (humanized 1B1)) VH: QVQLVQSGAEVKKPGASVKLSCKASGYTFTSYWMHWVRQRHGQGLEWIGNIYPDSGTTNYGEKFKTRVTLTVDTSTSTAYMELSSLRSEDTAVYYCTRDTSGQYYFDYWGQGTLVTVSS VL: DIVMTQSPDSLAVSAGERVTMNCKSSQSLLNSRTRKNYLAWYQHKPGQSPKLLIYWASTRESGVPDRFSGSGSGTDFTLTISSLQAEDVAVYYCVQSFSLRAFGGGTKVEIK" experimental_readout=Kd reported_result=2.96

Prompt: Quickly give me recorded Kd for 1B1-H2K3-IgG1-LALA (antibody, V domains shown, Humanized; human IgG1 with LALA mutations; also called H2K3 (humanized 1B1)) VH: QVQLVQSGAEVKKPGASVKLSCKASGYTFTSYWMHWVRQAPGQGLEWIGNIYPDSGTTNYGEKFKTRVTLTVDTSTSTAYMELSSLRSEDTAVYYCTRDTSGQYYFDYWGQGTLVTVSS VL: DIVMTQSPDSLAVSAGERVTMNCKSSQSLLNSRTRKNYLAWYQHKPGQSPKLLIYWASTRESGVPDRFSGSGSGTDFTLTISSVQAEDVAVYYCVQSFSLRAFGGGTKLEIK
Response: 1.01
